Quick list: recombinant barcode read abundance (log10) per entry.
Assay: recombinant barcode read abundance after kanamycin selection (control-corrected) (log10(CPM+1)); higher = more efficient recombination; sequences stand for … in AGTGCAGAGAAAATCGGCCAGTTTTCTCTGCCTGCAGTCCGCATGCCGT…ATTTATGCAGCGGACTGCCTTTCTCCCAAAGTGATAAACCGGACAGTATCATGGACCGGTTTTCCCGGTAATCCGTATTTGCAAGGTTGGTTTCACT; site = the 11-nt target
Answer with a number only.

Here's what some known entries look like.
1) AGTCTTACTTGGGTTCTAACCTGTTGCCAAA [AGTCTTACTTG_LTGcore_CT_RTGcore_TT] (site AGTCTTACTTG) (LTG core: CT, RTG core: TT); 0.0465
2) AAACAGTTTTGGGTTCTAACCTGTTGCCTAG [AAACAGTCTAG_LTGcore_TT_RTGcore_CT] (site AAACAGTCTAG) (LTG core: TT, RTG core: CT); 0.109

Note: attention shifts to another entry.
Could you please provide reported recombinant barcode read abundance (log10) for GGGAGCCAGTGGGTTCTAACCTGTTGCTGAG [GGGAGCCCTCA_LTGcore_AG_RTGcore_CT] (site GGGAGCCCTCA) (LTG core: AG, RTG core: CT) ? Thanks!
0.493
